Please respond with reported GI50 for every item in the list.
# Tested on: HT-29
# protocolDescription: NCI tumour cell line growth inhibition, 48 h
The source made the active and inactive calls. Rule as the data show it: active = GI50 up to about 1.1 µM and inactive = higher.

# lookup: HT-29 GI50, key = CCOC(=O)NN(C(=O)OCC)C(C(=O)c1ccccc1)N(NC(=O)OCC)C(=O)OCC > 100 µM (inactive)

# lookup: HT-29 GI50, key = CC(C)(C)[Si](C)(C)OC[C@H](/C=C\CCCC(=O)O)NC1(c2ccccc2)c2ccccc2-c2ccccc21 13.2 µM (inactive)

# lookup: HT-29 GI50, key = O=C(c1nc2ccc(Cl)cc2nc1O)C(O)c1ccc2c(c1)OCO2 (stereo not given) > 100 µM (inactive)

# lookup: HT-29 GI50, key = Cc1cc(O)c2c(=O)c3ccccc3[nH]c2c1 8.63 µM (inactive)

# lookup: HT-29 GI50, key = Clc1ccc(C[P+]2(c3ccccc3)CCCCC2)cc1.[O-][Cl+3]([O-])([O-])[O-] 32 µM (inactive)

# lookup: HT-29 GI50, key = CN(C)CCNc1ncnc2nc(-c3ccccc3)c(-c3ccccc3)nc12 > 100 µM (inactive)

# lookup: HT-29 GI50, key = CC(=O)NC1=C(C)C(=O)c2c(nc3n2CCC3O)C1=O (stereo not given) > 100 µM (inactive)

# lookup: HT-29 GI50, key = CC(C)(C)CC(C)(C)N/C(N)=N/O > 100 µM (inactive)

# lookup: HT-29 GI50, key = O=C(CSc1nnc(-c2ccc(/N=C\c3ccc(Cl)cc3)cc2)o1)Nc1cccc([N+](=O)[O-])c1 > 100 µM (inactive)

# lookup: HT-29 GI50, key = OC(CC(CC(O)(C(F)(F)Cl)C(F)(F)Cl)=NNc1ccccc1)(C(F)(F)Cl)C(F)(F)Cl 3.06 µM (inactive)

###

# Tested on: HOP-62
# protocolDescription: NCI tumour cell line growth inhibition, 48 h
The source made the active and inactive calls. Cut-off read from the data, not from the text of the source: active = GI50 up to about 1.1 µM and inactive = higher.
metric: GI50

Hello, please tell me recorded GI50 for this one: Sc1nnc(CNc2ccc(-c3nnc(S)n3-c3ccc(Cl)cc3)cc2)n1-c1ccc(Cl)cc1 18.5 µM (inactive)

Hello, please tell me recorded GI50 for this one: Fc1ccc(/C=C2\COCC3=C2NC(=S)NC3c2ccc(F)cc2)cc1 (stereo not given) 17.6 µM (inactive)

Hello, please tell me recorded GI50 for this one: CC(C(O)c1ccccc1)[N+](=O)[O-] (stereo not given) 25.3 µM (inactive)

Hello, please tell me recorded GI50 for this one: CCN(CC)CCC(=O)c1ccc(Oc2ccc(C)cc2)cc1 19.1 µM (inactive)

Hello, please tell me recorded GI50 for this one: CC(=O)c1c(O)cc(O)c(-c2c(C)cc(O)c3c2C(=O)c2cccc(O)c2C3=O)c1O 14.9 µM (inactive)

Hello, please tell me recorded GI50 for this one: CCOC(=O)/C=C(\C(=O)OCC)n1cc(C)c(=O)n(Cc2cnnn2COCCOC(C)=O)c1=O 22.2 µM (inactive)

Hello, please tell me recorded GI50 for this one: COc1cc(C(O)c2ccc3c(c2)OCO3)cc(OC)c1OC (stereo not given) > 100 µM (inactive)

Hello, please tell me recorded GI50 for this one: Fc1ccc(C(OCCN2CCC3CCC(C2)N3C/C=C/c2ccco2)c2ccc(F)cc2)cc1 (stereo not given) 16.2 µM (inactive)

Hello, please tell me recorded GI50 for this one: CCOC(=O)CC(=O)N(c1ccc(OC)cc1)C(C(=O)OC)c1ccccc1 (stereo not given) > 100 µM (inactive)

Hello, please tell me recorded GI50 for this one: Cc1cc(S(=O)(=O)O)c(NC(=O)C(=O)C2C=CCS2(=O)=O)cc1Cl (stereo not given) > 100 µM (inactive)

###

# Tested on: UACC-62
# protocolDescription: NCI tumour cell line growth inhibition, 48 h
The source made the active and inactive calls. No stated cut-off is given here; in the data, active = GI50 up to about 1.1 µM and inactive = higher. Where a SMILES comes first, the peptide text is derived from it. The star is where a group is joined. Cbz = O=C(OCc1ccccc1)*
Return exactly one item of 1 (yes) (active), 0 (no) (inactive)

What is the recorded call for this compound in the test? Cc1ccc(C(=O)/C=C2/Nc3ccc([N+](=O)[O-])cc3N/C2=C/C(=O)c2ccc(C)cc2)cc1 0 (no)

What is the recorded call for this compound in the test? CS(=O)(=O)OCCCCOS(C)(=O)=O 0 (no)

What is the recorded call for this compound in the test? O=c1cc(NNc2cccc(F)c2)[nH]c(=O)[nH]1 0 (no)

What is the recorded call for this compound in the test? Cc1ccc(-n2cnc3c(N/N=C4\SCC(=O)N4c4ccccc4)ncnc32)cc1 0 (no)

What is the recorded call for this compound in the test? O=C(O)CCO/N=C1/C(=C2/C(=O)Nc3ccccc32)Nc2ccccc21 0 (no)

What is the recorded call for this compound in the test? O=C(O)c1ccc(N2C=[N+]3C(=Nc4ccccc43)C2)cc1 0 (no)

What is the recorded call for this compound in the test? [O-][N+]1=[N+]([O-])[C@@H](c2ccccc2)[C@H]1c1ccccc1 0 (no)

What is the recorded call for this compound in the test? COc1cc2c(c(OC(C)=O)c1OC(C)=O)-c1ccc(SC)c(=O)cc1C(NC(C)=O)CC2 (configuration not stated) 0 (no)

What is the recorded call for this compound in the test? CCCCCCCCCCCC1=C(O)C(=O)C(CC2=C(O)C(=O)C(CCCCCCCCCCC)=C(O)C2=O)=C(O)C1=O 0 (no)

What is the recorded call for this compound in the test? C/C(=N\NC(=S)NC(CCC(=O)O)C(=O)O)c1ccccn1 (configuration not stated) 0 (no)

What is the recorded call for this compound in the test? CCOC(=O)c1cnc2oc(/C=N/N3CC(CN4CCOCC4)OC3=O)cc2c1O (configuration not stated) 0 (no)

What is the recorded call for this compound in the test? CNC(=O)c1nn[nH]c1Sc1c([N+](=O)[O-])ncn1C 0 (no)

What is the recorded call for this compound in the test? COCN1C(=O)[C@@H]2CCCN2C(=O)c2ccc(Cl)cc21 0 (no)

What is the recorded call for this compound in the test? O=C1Nc2ccccc2/C1=N/NC(=S)Nc1ccc([N+](=O)[O-])cc1 0 (no)

What is the recorded call for this compound in the test? O=C1Nc2ccc(Cl)c(I)c2C1=O 0 (no)

What is the recorded call for this compound in the test? CN(C)CC1CCC/C(=C\c2ccc(OC(=O)/C=C/c3ccc(Cl)c(Cl)c3)cc2)C1=O (configuration not stated) 0 (no)

What is the recorded call for this compound in the test? CCOC(=O)c1nc2cc(C(F)(F)F)ccc2nc1Nc1cc(OC)c(OC)c(OC)c1 0 (no)

What is the recorded call for this compound in the test? CC(=O)O[C@H]1C(=O)O[C@@H]2C[C@H]3C(C)=CC(=O)[C@@H](O)[C@]3(C)[C@H]3[C@@]4(O)OC[C@]32[C@@H]1[C@@H](C)[C@H]4O 1 (yes)

What is the recorded call for this compound in the test? O=C1CN(c2cccc(Cl)c2)C(=O)CN1CCN1CC(=O)N(c2cccc(Cl)c2)CC1=O 0 (no)

What is the recorded call for this compound in the test? CC(=O)c1c(O)cc(O)c(-c2c(C)cc(O)c3c2C(=O)c2cccc(O)c2C3=O)c1O 0 (no)

What is the recorded call for this compound in the test? COc1ccc(/C=C/C(=O)C(C)(C)Br)cc1 0 (no)

What is the recorded call for this compound in the test? O=c1[nH]c(=O)n(C2CC(O)C(CO)O2)cc1C#Cc1cc(C(F)(F)F)cc(C(F)(F)F)c1 (configuration not stated) 0 (no)

What is the recorded call for this compound in the test? CCOC(=O)CCC(NC(=O)C(Cc1ccccc1)NC(=O)OCc1ccccc1)C(=O)OCC (stereo not drawn) (Cbz-Phe-Glu(OEt)-OEt; configuration not given here) 0 (no)

What is the recorded call for this compound in the test? NCCNS(=O)(=O)c1ccc(N)cc1 0 (no)

What is the recorded call for this compound in the test? O=C1Nc2ccccc2/C1=N/Nc1nc(-c2cccc([N+](=O)[O-])c2)cs1 0 (no)

What is the recorded call for this compound in the test? Cc1ccc(S(=O)(=O)OC2CN3CCC2CC3)cc1 (configuration not stated) 0 (no)

What is the recorded call for this compound in the test? CCn1cc(C(=O)O)c(=O)c2cc(F)c(N3CCNCC3)nc21 0 (no)

What is the recorded call for this compound in the test? O=C1CSC(C(/N=N/c2ccc(Cl)cc2)c2nc3ccccc3[nH]2)=N1 (configuration not stated) 0 (no)

What is the recorded call for this compound in the test? O=C1Cc2c(-c3ccccc3)cc(-c3ccccc3)nc2-c2ccccc2N1 0 (no)

What is the recorded call for this compound in the test? O=C(Oc1ccccc1)N1c2ccccc2[C@@]23O[C@]24CCC[C@H]3C#C/C=C\C#C[C@H]14 0 (no)

What is the recorded call for this compound in the test? Nc1nc(N)c2ncn(Cc3ccccc3)c2n1 0 (no)

What is the recorded call for this compound in the test? CS(=O)(=O)OCCN(CCOS(C)(=O)=O)c1ccc(/C=N/c2ccc3oc(=O)ccc3c2)cc1 0 (no)

What is the recorded call for this compound in the test? O=C(Cc1ccccc1)NN1C(=O)/C(=C\c2cccc(O)c2)S/C1=N\c1ccccc1 0 (no)

What is the recorded call for this compound in the test? O=c1oc2c(Cl)cc(Cl)cc2cc1-c1cn2c(n1)sc1ccccc12 0 (no)

What is the recorded call for this compound in the test? COc1ccc(-c2cc(=O)c3c(O)cc(O)cc3o2)cc1OC 0 (no)

What is the recorded call for this compound in the test? CC(=O)n1[nH]c(=O)n(-c2ccccc2)c1=O 0 (no)

What is the recorded call for this compound in the test? CN(C)c1nc(N)c(C#N)c(C#N)c1C#N 0 (no)

What is the recorded call for this compound in the test? CS(=O)(=O)c1ccc(-c2cc(-c3ccc(S(C)(=O)=O)cc3)[n+](-c3cc(-c4ccc(S(C)(=O)=O)cc4)c([O-])c(-c4ccc(S(C)(=O)=O)cc4)c3)c(-c3ccc(S(C)(=O)=O)cc3)c2)cc1 0 (no)

What is the recorded call for this compound in the test? C[C@@H](c1ccccc1)N(CC#N)[C@H]1CCC[C@]1(O)/C=C/c1ccc2c(c1)OCO2 0 (no)

What is the recorded call for this compound in the test? CCCC(=O)/C=C/S/C=C/C(=O)CCC 0 (no)

What is the recorded call for this compound in the test? N#C/C(C(=O)Nc1ccc(Cl)cc1)=C(/N)N1CCCCC1 0 (no)

What is the recorded call for this compound in the test? CCc1n[nH]c(=O)n1NC(=O)/C=C\C(=O)O 0 (no)
